Test system: MS2 coat protein
Assay: apparent KD of MS2 coat protein, switch OFF state (with FMN for OFF switches, without FMN for ON switches); designed switch direction (-1 OFF switch, 1 ON switch): -1; higher = weaker reporter binding
Details: FMN input: 0 or 200 uM; Eterna round: R93 (includes R88 designs)
Class definitions on apparent KD of MS2 coat protein: class A = under 30 nM, class B = from 30 nM up to 50 nM, class C = 50 nM and over

>  <BIOSEQUENCE>
AAAAAACAUGAGGAUCACCCAUGUGAGGAUAUGCAAAACCCAUAUAAAAAGAGAAAAAGCAGAAGGCACAAAAA [wbt round 1 mod]

>  <GROUP>
class B

$$$$
>  <BIOSEQUENCE>
AAAAAGGGAGGAUAUACAUGAGGAUCACCCAUGUAAAACGCGCCAACAAAGAAACAAAGUAGAAGGCCCAAAAA [Default title]

>  <GROUP>
class A

$$$$
>  <BIOSEQUENCE>
AAGAAGAGAGGAUAUACAUGAGGAUCACCCAUGUAAAAGAAAGAGGGAAAAGAGAAAAGUAGAAGGCUCAAGAA [Arsinoe II]

>  <GROUP>
class B

$$$$
>  <BIOSEQUENCE>
AAAAAGUGAGGAUAUACAUGAGGAUCACCCAUGUGUAUAAAAAAAUACACAAAAGAAAGUAGAAGGCACUAAAG [Mat - Exclusion 3 - Mayanna mod - D109]

>  <GROUP>
class C

$$$$
>  <BIOSEQUENCE>
AGUUGGCGAGGAUAUACAUGAGGAUCACCCAUGUGAGAGUAAAAAGUGAGAAAGAAAAGUAGAAGGCGCUAACA [JL Lego Mod 19]

>  <GROUP>
class C

$$$$
>  <BIOSEQUENCE>
AAAGGUUGAGGAUAUGCGUGGAAAAAGUGUAUUCAAAAAAAACAUGAGGAUCACCCAUGUAGAAGGCGACCAAA [MS2 Riboswitches On Chip Exclusion 2 wbt3]

>  <GROUP>
class C

$$$$
>  <BIOSEQUENCE>
AGCAGGUGAGGAUAUCGAUUAAGAUUAACAUUAUUAUUAAACGAGAAGGCACAUGAGGAUCACCCAUGUAAGGA [Exclusion 4Col]

>  <GROUP>
class C

$$$$
>  <BIOSEQUENCE>
AGAGACAGAGGAUAUACAUGAGGAUCACCCAUGUAAGAGAAAGAAAAGGGAAAGAAAAGUAGAAGGCUGAGAGA [Ruby 67]

>  <GROUP>
class A

$$$$
>  <BIOSEQUENCE>
AAUGCGGCAGGAUAUACAUGAGGAUCACCCAUGUAGAUCAGAUAUAUGGGAAAGCCAUGUAGAAGGGCCGCAAA [Ex 3May 61]

>  <GROUP>
class A

$$$$
>  <BIOSEQUENCE>
AAGACUACAGGAUAUACAUGAGGAUCACCCAUGUAACUGACGGGUAGAUGACGGAGAAGUAGAAGGGUAGUCAA [Ruby 37]

>  <GROUP>
class B

$$$$
>  <BIOSEQUENCE>
AAAUGCUGAGGAUAUACAUGAGGAUCACCCAUGUGAAAUAAAAAAUGUGUGUAAGCGUGUAGAAGGCAGCAUAA [Exclusion 3.12 (FMN+ favored)]

>  <GROUP>
class A

$$$$
>  <BIOSEQUENCE>
AAAAAACAUGAGGAUCACCCAUGUAAGGAUAUGCAAGAAAGAAGAAAGAAAAGAAAAAGCAGAAGGUACAAAAA [Amethyst 71]

>  <GROUP>
class B

$$$$

###

Test system: MS2 coat protein
Test: apparent KD of MS2 coat protein, switch ON state; designed switch direction (-1 OFF switch, 1 ON switch): -1; higher = weaker reporter binding
Settings: FMN input: 0 or 200 uM; Eterna round: R93 (includes R88 designs)
// reported apparent KD of MS2 coat protein per item
VALUE_TYPE: apparent KD of MS2 coat protein

>  <BIOSEQUENCE>
AAAUGCUGAGGAUAUACAUGAGGAUCACCCAUGUGAAAUAAAAAAUGUGUGUAAGCGUGUAGAAGGCAGCAUAA [Exclusion 3.12 (FMN+ favored)]

>  <VALUE_MEASURED>
57.1 nM

$$$$
>  <BIOSEQUENCE>
AGAAAACAUGAGGAUCACCCAUGUCAGGAUAUCUAAAAGAAAAGAAAAGAAAGAAGAAAGAGAAGGGACAAGAA [Sekhemib-Perenmaat]

>  <VALUE_MEASURED>
22.1 nM

$$$$
>  <BIOSEQUENCE>
AAGAAAGCAGGAUAUACAAAAUAAAAGAAAAGAAAGAAAGAACAUGAGGAUCACCCAUGUAGAAGGGCUAAGAA [Khahotepre Sobekhotep VI]

>  <VALUE_MEASURED>
38 nM

$$$$
>  <BIOSEQUENCE>
CACGUACAUGAGGAUCACCCAUGUUAGGAUAUGCCGAAAAAAAAAAAAAAAAAAAUCAGCAGAAGGAACGAAAC [Bilbo Confounded 19 - Jieux - Exclusion 1]

>  <VALUE_MEASURED>
40.2 nM

$$$$
>  <BIOSEQUENCE>
AACUGACAUGAGGAUCACCCAUGUCAGGAUAUGACAUCGAGAAAAAAAAAAAUCGUUGUCAGAAGGGACAUGAA [Design 78: Sub-opt T]

>  <VALUE_MEASURED>
12.4 nM

$$$$
>  <BIOSEQUENCE>
AAAAAGGGAGGAUAUGCAUACACACAAAAAAAAAAAAAGGGACAUGAGGAUCACCCAUGUAGAAGGCCCAAAAA [Dora Explored 5 - Jieux - Exclusion 2]

>  <VALUE_MEASURED>
29.9 nM

$$$$
>  <BIOSEQUENCE>
AAAAAACAUGAGGAUCACCCAUGUAAGGAUAUGUAAAAUAAAAGAAAAAUAAAGAAAAGCAGAAGGUACAUGUA [JL wbt mod 16]

>  <VALUE_MEASURED>
40.4 nM

$$$$
>  <BIOSEQUENCE>
UCCUUACAUGAGGAUCACCCAUGUUAGGAUAUCUCGCUUGCGCAAUCACAGCGCAAGCAGAGAAGGGACGCGGG [Ledige]

>  <VALUE_MEASURED>
22.8 nM

$$$$
>  <BIOSEQUENCE>
AAACCACAUGAGGAUCACCCAUGUGAGGAUAUGAACGAAAUAAAAUAAAAAUAAAAGUUCAGAAGGCACAAAAA [Mat - Exclusion 1 - Eli mod - D14]

>  <VALUE_MEASURED>
18.2 nM

$$$$
>  <BIOSEQUENCE>
AGCUAGUCAGGAUAUACGAACAUGUCGGUGGACGUGAAGGGACAUGAGGAUCACCCAUGUAGAAGGGACUAGCA [salish99-Ex2-21]

>  <VALUE_MEASURED>
41.3 nM

$$$$
>  <BIOSEQUENCE>
GGUUGGCGAGGAUAUACAUGAGGAUCACCCAUGUGAGAGAAAAAAGUGAGAAAGAAAAGUAGAAGGUGUUGACG [salish99-ex3-70]

>  <VALUE_MEASURED>
55.4 nM

$$$$
>  <BIOSEQUENCE>
AGCUAGUCAGGAUAUACGAACAUGUCGCCAGAUGUGAAGGGACAUGAGGAUCACCCAUGUAGAAGGGACUAGCA [salish99-Ex2-23]

>  <VALUE_MEASURED>
254 nM

$$$$
>  <BIOSEQUENCE>
AAUAAGUCAGGAUAUACUAUGUCAGGAGAGAGACUGACUAUGUAGAAGGGACAUGAGGAUCACCCAUGUAAUAA [JR_Exclusion4_Sub5]

>  <VALUE_MEASURED>
47.4 nM

$$$$

###

System: MS2 coat protein
Assay: apparent KD of MS2 coat protein, switch ON state; designed switch direction (-1 OFF switch, 1 ON switch): -1; higher = weaker reporter binding
Settings: FMN input: 0 or 200 uM; Eterna round: R93 (includes R88 designs)

>  <BIOSEQUENCE>
AGGAGACAUGAGGAUCACCCAUGUUAGGAUAUGAACGAAAAUAAAUAAAAAUAAAAGUUCAGAAGGGACGAAAA [66%, Wbt, 8]

>  <apparent KD of MS2 coat protein>
43.3 nM

$$$$
>  <BIOSEQUENCE>
AAGGUAUGAGGAUAUACAUAGAUACAGACACAUGUUCAAGUACAUGAGGAUCACCCAUGUAGAAGGCAUAUAUA [AJ 14]

>  <apparent KD of MS2 coat protein>
24.2 nM

$$$$
>  <BIOSEQUENCE>
AAAAGCUAAGGAUAUACAUGAGGAUCACCCAUGUAGAACAGUGUAUGGGUAAAGGCGCGUAGAAGGUAGAAAAG [Arbileat]

>  <apparent KD of MS2 coat protein>
29.9 nM

$$$$
>  <BIOSEQUENCE>
AGCUAGUCAGGAUAUACGAACAUGUCGAGAGACGUGAAGGGACAUGAGGAUCACCCAUGUAGAAGGGACUAGCA [Mat - Exclusion 2 - JL mod - D2]

>  <apparent KD of MS2 coat protein>
35.5 nM

$$$$
>  <BIOSEQUENCE>
AAGAACACAGGAUAUACAUGAGGAUCACCCAUGUAAAAGAAAGAGGGAAAAGAGAAAAGUAGAAGGGUGAAGAA [Hugronaphor]

>  <apparent KD of MS2 coat protein>
33.1 nM

$$$$
>  <BIOSEQUENCE>
AAAAAGUGAGGAUAUACGUUGAAGAGAAAACACAUCCAGGCGUAGAAGGCACAUGAGGAUCACCCAUGUACAAA [Ex4 Malc#7]

>  <apparent KD of MS2 coat protein>
23.4 nM

$$$$
>  <BIOSEQUENCE>
AAGAAGGAAGGAUAUACAUGAGGAUCACCCAUGUAAAAGAAAGAAAAGGGAAAGAAAAGUAGAAGGUCCAAGAA [Djeserkheperure-setpenre Horemheb]

>  <apparent KD of MS2 coat protein>
30.4 nM

$$$$
>  <BIOSEQUENCE>
AAAAAACAUGAGGAUCACCCAUGUAAGGAUAUCGAAAAGAAAAGAAAAGAAAGAAGAACGAGAAGGUACAAGAA [Neferirkare Kakai]

>  <apparent KD of MS2 coat protein>
16.6 nM

$$$$
>  <BIOSEQUENCE>
UUUAAGUGAGGAUAUACGAAUAGUAAGUAAGUAUAACAGACGUAGAAGGCACAUGAGGAUCACCCAUGUAAAUA [JR_Exc004_Sub305]

>  <apparent KD of MS2 coat protein>
24.4 nM

$$$$
>  <BIOSEQUENCE>
ACCAGACAUGAGGAUCACCCAUGUCAGGAUAUCUAGAAAACCUCAUGUAAAAAAAUCUAGAGAAGGGAUAUGGA [Design 94: Pseudoknot D]

>  <apparent KD of MS2 coat protein>
40.6 nM

$$$$
>  <BIOSEQUENCE>
AAAAAGCGAGGAUAUACAUGAGGAUCACCCAUGUCAAAAGGUAAGACCGCAGAAAAAAGUAGAAGGCGCAAAAA [Exclusion3-01]

>  <apparent KD of MS2 coat protein>
68.1 nM

$$$$
>  <BIOSEQUENCE>
AAUAAGUGAGGAUAUACGAAAUAAAUAAAUAAAUAAAUAAAGUAGAAGGCACAUGAGGAUCACCCAUGUAAUAA [My Mind Is Going Dave]

>  <apparent KD of MS2 coat protein>
34.4 nM

$$$$
>  <BIOSEQUENCE>
CCAAAGUGAGGAUAUACGCGAACAAAAAAAAAAAAGAAAGCGUAGAAGGCACAUGAGGAUCACCCAUGUCCAGG [Alfred 64% 1]

>  <apparent KD of MS2 coat protein>
41 nM

$$$$
